Exercise: for every item that follows, state its recorded IC50.
# Target Of Assay: Human Factor D (Homo sapiens)
# Construct: purified from human serum; purchased Complement Technology, Inc; host or cells: human serum (natural protein, not recombinant)
# Sequence (P00746 26-253): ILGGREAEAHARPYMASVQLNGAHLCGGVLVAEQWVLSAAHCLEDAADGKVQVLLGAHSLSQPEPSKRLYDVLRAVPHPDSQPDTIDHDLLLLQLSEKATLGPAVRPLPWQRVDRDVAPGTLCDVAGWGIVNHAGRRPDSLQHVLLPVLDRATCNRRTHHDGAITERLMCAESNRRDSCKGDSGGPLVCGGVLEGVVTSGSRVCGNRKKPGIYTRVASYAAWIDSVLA
# Run Description: Human Factor D Assay
# Assay type: biochemical
# Condition: Human Factor D 80 nM, substrate Z-L-Lys-SBzl, assay of Example 3; read-out: IC50 (Stars)

A selection of reference data follows.
Molecule: COC(=O)c1ncc(-c2cc(C)c3c(c2)c(C(C)=O)nn3CC(=O)N2[C@H](C(=O)Nc3nc(Br)ccc3C)C[C@@]3(C)C[C@@H]23)cn1 [Compound 38]
Endpoint Value: < 1000 nM

Molecule: CC(=O)c1nn(CC(=O)N2C[C@H](F)C[C@H]2C(=O)Nc2cccc(Br)n2)c2ccc(-c3ccc(C)nc3)cc12 [Compound 33]
Endpoint Value: < 1000 nM

Molecule: CC(=O)c1nn(CC(=O)N2[C@H](C(=O)N[C@@H](C)CC(C)C)C[C@@]3(C)C[C@@H]23)c2ccc(-c3cnc(C)nc3)cc12 [Compound 10]
Endpoint Value: < 1000 nM

Molecule: CC(=O)c1nn(CC(=O)N2[C@H](C(=O)N[C@H](C)CCc3ccccc3)C[C@@]3(C)C[C@@H]23)c2ccc(-c3cnc(C)nc3)cc12 [Compound 13]
Endpoint Value: < 1000 nM

Items follow; give IC50 for each.
1. CC(=O)c1nn(CC(=O)N2[C@H](C(=O)NCCc3ccc(Cl)cc3Cl)C[C@@]3(C)C[C@@H]23)c2c(C)cc(-c3cnc(C)nc3)cc12 [Compound 5]
2. CC(=O)c1nn(CC(=O)N2[C@H](C(=O)N[C@H](C)C(C)C)C[C@@]3(C)C[C@@H]23)c2ccc(-c3cnc(C)nc3)cc12 [Compound 14]

**Result**
1. < 1000 nM
2. < 1000 nM

Provenance of the data: patent US20230022157A1
